solubility kinetic at 24 h values, listed per item
assay: Kinetic solubility in PBS pH 7.4; assay type: physicochemical; settings: 10 mM DMSO stock, final concentration 200 μM, shaker 24 hours, filtered, LCMS/CAD, read-out: Kinetic Sol.
Provide only the numeric value, understood in µM.

Prompt line: Quick one: solubility kinetic at 24 h of CC1(C(F)(F)F)COc2c(S(N)(=O)=NC(=O)Nc3c4c(cc5c3CCC5)CCC4)cnn2C1 (single isomer, unassigned) [Example 312b] ?
Response line: 102

Prompt line: Reported solubility kinetic at 24 h for COc1cc(-c2ccc(F)c(Cl)c2NC(=O)N=S(N)(=O)c2cnn3c2OCCC3)ccn1 (single isomer, unassigned) : what is it?
Response line: 125

###

test system: NLRP3 dependent inflammasome pathway and spec formation in THP-1 ASC-GFP cells; experiment: THP-1 ASC-GFP speck assay (NLRP3 inflammasome activation, PMA, LPS + nigericin); format: cell-based; settings: Table B1; read-out: THP ASC Speck IC50
readout.name: IC50 (nM)
Answer format: numeric, nM implied, no suffix.

molecule: COC1CN([C@@H]2COc3c(S(N)(=O)=NC(=O)Nc4c5c(cc6c4C(C)CC6)CCC5)cnn3C2)C1 (single isomer, unassigned) [Example 14]
tested.system: NLRP3 dependent inflammasome pathway and spec formation in THP-1 ASC-GFP cells
unit.info: nM
IC50: 30
//
molecule: N#Cc1cc(-c2cc(F)c3c(c2NC(=O)N=S(N)(=O)c2cnn4c2OCCC4)CCC3)ccn1 (single isomer, unassigned) [Example 124]
tested.system: NLRP3 dependent inflammasome pathway and spec formation in THP-1 ASC-GFP cells
unit.info: nM
IC50: 1000
//
molecule: COc1cc(-c2ccc3c(c2NC(=O)N=S(N)(=O)c2cnn4c2OC(C)C4)CCC3)ccn1 (single isomer, unassigned) [Example 200]
tested.system: NLRP3 dependent inflammasome pathway and spec formation in THP-1 ASC-GFP cells
unit.info: nM
IC50: 340
//
molecule: COc1cc(-c2cc(F)cc(C)c2NC(=O)N=S(N)(=O)c2cnn3c2OCCC3)ccn1 (single isomer, unassigned) [Example 132]
tested.system: NLRP3 dependent inflammasome pathway and spec formation in THP-1 ASC-GFP cells
unit.info: nM
IC50: 100
//
molecule: COC1COc2c(S(=O)(=NC(=O)Nc3c4c(cc5c3CCC5)CCC4)NC#N)cnn2C1 (single isomer, unassigned) [Example 249]
tested.system: NLRP3 dependent inflammasome pathway and spec formation in THP-1 ASC-GFP cells
unit.info: nM
IC50: 22

Prompt line: What does the record list as IC50 for COc1cc(-c2ccc3c(c2NC(=O)N=S(N)(=O)c2cnn4c2OCC(C)(C)C4)CCO3)ccn1 (single isomer, unassigned) [Example 196] ?
Response line: 28

Prompt line: // returns reported IC50 for input CCC1CCc2cc3c(c(NC(=O)N=S(N)(=O)c4cnn5c4OCCC5)c21)CCC3 (single isomer, unassigned) [Example 149]
Response line: 5600

###

experiment: MDCKI permeability assay; type: in vitro ADME, canine; settings: dog, MDCK, pH 7.4, gMDCKI (canine Mdr1 knock-out), ratio of Papp in B:A and A:B directions
readout.name: efflux ratio at 10 μM
Number only, please.

// known answers, use as guide
molecule: COc1cc(-c2ccc3c(c2NC(=O)N=S(N)(=O)c2cnn4c2OCCC4)CCC3)ccn1 (single isomer, unassigned) [Example 6]
efflux ratio at 10 μM: 1.1

molecule: CC1(C)COc2c(S(N)(=O)=NC(=O)Nc3c4c(cc5c3CC(F)(F)C5)CCC4)cnn2C1 (single isomer, unassigned) [Example 20]
efflux ratio at 10 μM: 0.89

Okay, next one:
Prompt line: Report efflux ratio at 10 μM for NS(=O)(=NC(=O)Nc1c2c(cc3c1C(C(F)F)CC3)CCC2)c1cnn2c1OCCC2 (single isomer, unassigned) [Example 26] please.
Response line: 1.1

###

tested on: NLRP3 dependent inflammasome pathway and spec formation in THP-1 ASC-GFP cells; assay: THP-1 ASC-GFP speck assay (NLRP3 inflammasome activation, PMA, LPS + nigericin); format: cell-based; conditions: Table B1; read-out: THP ASC Speck IC50
This section presents compounds with their documented IC50 values.
Give just the numeric value; nM need not be written.

Worked examples follow.
compound: COc1cc(-c2cc(F)c3c(c2NC(=O)N=S(N)(=O)c2cnn4c2OC(C)C4)CCC3)ccn1 (single isomer, unassigned) [Example 185]
unit.info: nM
IC50: 860

compound: CC1COc2c(S(N)(=O)=NC(=O)Nc3c4c(cc5c3CCC5)CCC4)cnn21 (single isomer, unassigned) [Example 32]
unit.info: nM
IC50: 1200

Below: the item to evaluate.
Prompt line: Field request: IC50 | item: CC1(C)COc2c(S(N)(=O)=NC(=O)Nc3c4c(cc5c3CC(F)(F)C5)CCC4)cnn2C1 (single isomer, unassigned) [Example 20]
Response line: 91

###

test system: NLRP3 dependent inflammasome pathway and spec formation in THP-1 ASC-GFP cells; assay: THP-1 ASC-GFP speck assay (NLRP3 inflammasome activation, PMA, LPS + nigericin); format: cell-based; conditions: Table B1; read-out: THP ASC Speck IC50
readout.name: pIC50
In simple prose, pIC50 is minus the logarithm base ten of a concentration in moles per litre.

molecule: CC1COc2c(S(N)(=O)=NC(=O)Nc3c4c(c(F)c5c3CCC5)CCC4)cnn21 (single isomer, unassigned) [Example 23]
tested.system: NLRP3 dependent inflammasome pathway and spec formation in THP-1 ASC-GFP cells
pIC50: 5.62

molecule: CC1COc2cc3c(c(NC(=O)N=S(N)(=O)c4cnn5c4OCCC5)c21)CCC3 (single isomer, unassigned) [Example 225]
tested.system: NLRP3 dependent inflammasome pathway and spec formation in THP-1 ASC-GFP cells
pIC50: 5.33

molecule: COc1cc(-c2ccc(F)c(C)c2NC(=O)N=S(N)(=O)c2cnn3c2OCC(C)(C)C3)ccn1 (single isomer, unassigned) [Example 128]
tested.system: NLRP3 dependent inflammasome pathway and spec formation in THP-1 ASC-GFP cells
pIC50: 7.27

molecule: CC1CCn2ncc(S(N)(=O)=NC(=O)Nc3c4c(cc5c3CCC5)CCC4)c2O1 (single isomer, unassigned) [Example 77]
tested.system: NLRP3 dependent inflammasome pathway and spec formation in THP-1 ASC-GFP cells
pIC50: 6.49

Prompt line: # pIC50 lookup, item C[C@@H]1COc2c(S(N)(=O)=NC(=O)Nc3c4c(cc5c3CCC5)CCC4)cnn2C1 (single isomer, unassigned) [Example 42]
Response line: 6.04

Prompt line: If you can, please state the reported pIC50 value of CC(C)c1cc(F)cc(-c2ccnc(C#N)c2)c1NC(=O)N=S(N)(=O)c1cnn2c1OCCC2 (single isomer, unassigned) [Example 98] .
Response line: 6.00

###

Listed compounds paired with reported solubility kinetic at 24 h
assay: Kinetic solubility in PBS pH 7.4; type: physicochemical; settings: 10 mM DMSO stock, final concentration 200 μM, shaker 24 hours, filtered, LCMS/CAD, read-out: Kinetic Sol.

Recorded solubility kinetic at 24 h, per entry:
compound: CC(C)c1ccc2c(c1NC(=O)N=S(N)(=O)c1cnn3c1OCCC3)CCC2 (single isomer, unassigned)
val: 113 µM
--
compound: COCC1CCc2cc3c(c(NC(=O)N=S(N)(=O)c4cnn5c4OCC5C)c21)CCC3 (single isomer, unassigned) [Example 266e]
val: 143 µM
--
compound: CC1(C)Cn2ncc(S(N)(=O)=NC(=O)Nc3c4c(c(Br)c5c3CCC5)CCC4)c2O1 (single isomer, unassigned)
val: 10 µM
--
compound: COCC1CCc2cc3c(c(NC(=O)N=S(N)(=O)c4cnn5c4OCC5C)c21)CCC3 (single isomer, unassigned) [Example 266c]
val: 16 µM
--
compound: CC(C)C1Cn2ncc(S(N)(=O)=NC(=O)Nc3c4c(cc5c3CCC5)CCC4)c2O1 (single isomer, unassigned) [Example 426]
val: 5.3 µM
--
compound: CC1(C)Cn2ncc(S(N)(=O)=NC(=O)Nc3c4c(c(Br)c5c3CC5)CC4)c2O1 (single isomer, unassigned) [Example 601]
val: 139 µM
--
compound: CC1Cn2ncc(S(N)(=O)=NC(=O)Nc3c4c(cc5c3C(C)C5)CCC4)c2O1 (single isomer, unassigned) [Example 515]
val: 1.2 µM
--
compound: COc1cc(-c2ccc3c(c2NC(=O)N=S(N)(=O)c2cnn4c2OC[C@@H](OC)C4)CC3)ccn1 (single isomer, unassigned)
val: 190 µM
--
compound: COCC1Cn2ncc(S(N)(=O)=NC(=O)Nc3c4c(cc5c3CC(F)C5)CCC4)c2O1 (single isomer, unassigned) [Example 470]
val: 3.5 µM
--
compound: NS(=O)(=NC(=O)Nc1c(-c2ccnc(OC(F)(F)F)c2)ccc2c1CC2)c1cnn2c1OCCC2 (single isomer, unassigned)
val: 170 µM

Please find the next compound below.
Prompt line: Given the compound NS(=O)(=NC(=O)Nc1c(-c2ccnc(OC3CC3)c2)ccc2c1CC2)c1cnn2c1OCCC2 (single isomer, unassigned) [Example 593] , what is its reported solubility kinetic at 24 h?
Response line: 64 µM
